Provenance of the data: patent US20250195521A1

# System name: KRAS G13D (Homo sapiens (Human), UniProt P01116+P62937, G13D)
# Sequence (P01116 other isoform, or with tags, fused parts or gaps G13D): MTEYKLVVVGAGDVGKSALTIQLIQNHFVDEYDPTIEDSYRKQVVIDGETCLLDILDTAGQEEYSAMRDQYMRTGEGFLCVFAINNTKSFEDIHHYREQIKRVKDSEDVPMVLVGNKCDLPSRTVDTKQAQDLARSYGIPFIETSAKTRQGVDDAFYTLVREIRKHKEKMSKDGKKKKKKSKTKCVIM
# Sequence (P62937 whole entry): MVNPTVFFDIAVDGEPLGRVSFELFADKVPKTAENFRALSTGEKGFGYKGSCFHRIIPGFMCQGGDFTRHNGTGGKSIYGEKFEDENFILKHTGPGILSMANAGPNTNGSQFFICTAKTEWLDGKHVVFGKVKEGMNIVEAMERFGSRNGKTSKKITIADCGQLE
# Method summary: Ras-Raf disruption/FRET/MOA assay (BRAF RBD, Cyclophilin A)
# Assay type: biochemical
# Protocol conditions: read-out: KRAS G13D FRET data IC50
pIC50: −log10 of the molar value.
Field: pIC50. Provide a value for each of the compounds that follow.

Consider CCn1c(-c2cccnc2[C@H](C)OC)c2c3cc(ccc31)-c1cc(O)cc(c1)C[C@H](NS(=O)(=O)C1CC1)C(=O)N1CCC[C@H](N1)C(=O)OCC(C)(C)C2 . Its measured pIC50 is < 5.00

Record summary for CCn1c(-c2cccnc2[C@H](C)OC)c2c3cc(ccc31)-c1cc(cc3nc[nH]c13)C[C@H](NC(=O)[C@H](C(C)C)N(C)C(C)=O)C(=O)N1CCC[C@H](N1)C(=O)OCC(C)(C)C2 : reported pIC50 = < 5.00

pIC50 measured on CCn1c(-c2cccnc2[C@H](C)OC)c2c3cc(ccc31)-c1csc(n1)C[C@H](NC(=O)[C@H](C(C)C)N(C)C(=O)N1CC3(CCOCC3)C1)C(=O)N1CCC[C@H](N1)C(=O)OCC(C)(C)C2 = 5.00 to 6.00

Measured pIC50, CCn1c(-c2cccnc2[C@H](C)OC)c2c3cc(ccc31)-c1csc(n1)C[C@H](NC(=O)[C@H](C(C)C)N(C)C(=O)N1CC(C(C)(C)O)C1)C(=O)N1CCC[C@H](N1)C(=O)OCC(C)(C)C2 : 6.00 to 7.00

Notebook: CCn1c(-c2cccnc2[C@H](C)OC)c2c3cc(ccc31)-c1csc(n1)C[C@H](NC(=O)[C@H](C(C)C)N1CCCN(C)C1=O)C(=O)N1CCC[C@H](N1)C(=O)OCC(C)(C)C2 , pIC50 read as 5.00 to 6.00

Lookup result for CCn1c(-c2cccnc2[C@H](C)OC)c2c3cc(ccc31)-c1csc(n1)C[C@H](NC(=O)[C@H](C(C)C)N1C[C@@H](c3ccccc3)CC1=O)C(=O)N1CCC[C@H](N1)C(=O)OCC(C)(C)C2 (single isomer, unassigned) ; measured pIC50: 5.00 to 6.00

Input CCn1c(-c2cccnc2[C@H](C)OC)c2c3cc(ccc31)-c1csc(n1)C[C@H](NC(=O)[C@H](C(C)C)N(C)C(=O)N1CC(O)(COC)C1)C(=O)N1CCC[C@H](N1)C(=O)OCC(C)(C)C2 . Output pIC50: 5.00 to 6.00

The measured pIC50 associated with CCn1c(-c2cccnc2[C@H](C)OC)c2c3cc(ccc31)-c1csc(n1)C[C@H](NC(=O)[C@H](C(C)C)N(C)C(=O)N(C)[C@@H]1CCN(C)C1)C(=O)N1CCC[C@H](N1)C(=O)OCC(C)(C)C2 reads 6.00 to 7.00

Record CCn1c(-c2cccnc2[C@H](C)OC)c2c3cc(ccc31)-c1csc(n1)C[C@H](NC(=O)[C@H](C(C)C)N(C)C(=O)N1CC(N(C)C(C)C)C1)C(=O)N1CCC[C@H](N1)C(=O)OCC(C)(C)C2 , field pIC50: 6.00 to 7.00

The measured pIC50 associated with CCn1c(-c2cccnc2[C@H](C)OC)c2c3cc(ccc31)-c1csc(n1)C[C@H](NC(=O)[C@H](C(C)C)N(C)C(=O)N1CC[C@@]13CCCN(C)C3)C(=O)N1CCC[C@H](N1)C(=O)OCC(C)(C)C2 reads 6.00 to 7.00

According to the records, this compound CCn1c(-c2cccnc2[C@H](C)OC)c2c3cc(ccc31)-c1cc(O)cc(c1)C[C@H](NC(=O)[C@H](C(C)C)N(C)C(=O)[C@H]1CCCC[C@@H]1N)C(=O)N1CCC[C@H](N1)C(=O)OCC(C)(C)C2 displays pIC50 of 6.00 to 7.00

Form: compound = CCn1c(-c2cccnc2[C@H](C)OC)c2c3cc(ccc31)-c1csc(n1)C[C@H](NC(=O)[C@H](C(C)C)N(C)C(=O)N1CCC[C@@H]1CN(C)C)C(=O)N1CCC[C@H](N1)C(=O)OCC(C)(C)C2 ; pIC50 = 6.00 to 7.00

Field pIC50 (entry CCn1c(-c2cccnc2[C@H](C)OC)c2c3cc(ccc31)-c1csc(n1)C[C@H](NC(=O)[C@H](C(C)C)N(C)C(=O)N1CC([C@@H](CO)OC)C1)C(=O)N1CCC[C@H](N1)C(=O)OCC(C)(C)C2 ) reads 6.00 to 7.00

Record summary for CCn1c(-c2cccnc2[C@H](C)OC)c2c3cc(ccc31)-c1csc(n1)C[C@H](NC(=O)[C@H](C(C)C)N(C)C(=O)N1CC([C@@H](C)OC)C1)C(=O)N1CCC[C@H](N1)C(=O)OCC(C)(C)C2 : reported pIC50 = 6.00 to 7.00

Form: compound = CCn1c(-c2cccnc2[C@H](C)OC)c2c3cc(ccc31)-c1cc(O)cc(c1)C[C@H](NC(=O)[C@@H]1CCCCCN1C(C)=O)C(=O)N1CCC[C@H](N1)C(=O)OCC(C)(C)C2 ; pIC50 = 6.00 to 7.00

// sample CCn1c(-c2cccnc2[C@H](C)OC)c2c3cc(ccc31)-c1csc(n1)C[C@H](NC(=O)[C@H](C(C)C)N(C)C(=O)N1CC(OC)C1)C(=O)N1CCC[C@H](N1)C(=O)OCC(C)(C)C2 [Compound A354] , its pIC50 was 5.00 to 6.00

// field: pIC50; key: CCn1c(-c2cccnc2[C@H](C)OC)c2c3cc(ccc31)-c1csc(n1)C[C@H](NC(=O)[C@H](C(C)C)N(C)C(=O)N1CC(C3COC3)C1)C(=O)N1CCC[C@H](N1)C(=O)OCC(C)(C)C2 ; value = 6.00 to 7.00

Record summary for CCn1c(-c2cccnc2[C@H](C)OC)c2c3cc(ccc31)-c1cc(O)cc(c1)C[C@H](NC(=O)[C@H](C(C)C)N(C)C(=O)C1CNCCO1)C(=O)N1CCC[C@H](N1)C(=O)OCC(C)(C)C2 (stereo partly drawn) : reported pIC50 = 7.00 to 8.00
